B1: Hairpin Ribozyme (parent)
chain: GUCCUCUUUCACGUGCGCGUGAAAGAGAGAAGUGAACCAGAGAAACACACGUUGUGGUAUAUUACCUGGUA

- Variants of: B1
- Procedure Summary: self-cleavage, relative activity (ratio to wild type); higher = more cleavage; co-transcriptional
self-cleavage reference
Please give only the number in your answer, with no unit.

| Chain Sequence | self-cleavage |
| --- | --- |
| GUCCGCUUUCACGUGCGCGUGAAAGAGAGAAGUGAACCAGAGAAACACACGUUGUGGUCUAUUACCUGGUA [U5G A59C] | 0.13 |

(Q) Which self-cleavage value is on record for GUCCCCUUUCACGUGCGCGUGAAAGAGAGAAGUGAACCAGAGAAACACACGUUGUGGGAUAUUACCUGGUA [U5C U58G] ?
(A) 0.318

(Q) Which self-cleavage value is on record for GUCCUCUUUCACGUGCGCGUGAAAGAGAGAAGUGAACCAGAGAAACACACGUUGUAGUUUAUUACCUGGUA [G56A A59U] ?
(A) 0.125

(Q) Which self-cleavage value is on record for GUCCUCUUUCACGUGCGCGUGAAAGAGAGAAGUGAGCCAGAGAAACACACGUUGUGGUAGAUUACCUGGUA [A36G U60G] ?
(A) 0.62

(Q) Which self-cleavage value is on record for GUCCUCUUUCACGUGCGACUGAAAGAGAGAAGUGAACCAGAGAAACACACGUUGUGGUAUAUUACCUGGUA [C18A G19C] ?
(A) 0.802

(Q) Which self-cleavage value is on record for UUCCUCUUUCACGUGCGCGUGAAAGAGAGAAGUGAACCAGAGAAACACACGUUGUGGUAUAUUACCUGGUG [G1U A71G] ?
(A) 0.115

(Q) Which self-cleavage value is on record for GUCCUCUUUCACGUGGGCGUGAAAGAGAGAAGUGAACCAGAGAAACACACGUUGUGGUAUAUUACCGGGUA [C16G U67G] ?
(A) 0.191

Hello, the source for this data is the RNAGym collection of RNA variant scans (doi:10.7554/elife.80360), in case you need it.
